Hello, the source for this data is patent US9334289B2, in case you need it.

Catalogue of MIC values
- Tested on: P. aeruginosa SR27060
- testDescription: MIC, CLSI broth microdilution, Test Example 1
- Type: cell-based
- testConditions: Pseudomonas aeruginosa, SR27060; IMP-1 MBL producing strain (carbapenem resistance strain); cation-adjusted Mueller Hinton broth containing human apo-transferrin; 5×10^5 cfu/mL; read-out: Minimum Inhibitory Concentration (MIC) P. aeruginosa SR27060
- Experimental: Measurement of Minimum Inhibitory Concentration (MIC: μg/mL) was conducted according to CLSI (Clinical and Laboratory Standards Institute) method, and the amount of bacteria for inoculation was 5×10^5 cfu/mL, and cation-adjusted Mueller Hinton broth containing human apo-transferrin was used as a test medium, and the experiment was conducted using broth microdilution method. The bacteria used are listed below.

Worked set:
CC(C)(O/N=C(\C(=O)N[C@@H]1C(=O)N2C(c3nnn[n-]3)=C(C[n+]3ccc4cc(O)c(O)cc4c3)CS[C@H]12)c1csc(N)n1)C(=O)[O-].[Na+] :: 0.25 µg/mL
CC(C)(O/N=C(\C(=O)N[C@@H]1C(=O)N2C(c3nnn[nH]3)=C(C[n+]3ccc(NC(=O)c4ccc(O)c(O)c4Cl)c4ccccc43)CS[C@H]12)c1csc(N)n1)C(=O)[O-] :: 0.25 µg/mL
CC(C)(O/N=C(\C(=O)N[C@@H]1C(=O)N2C(c3nnn[n-]3)=C(C[N+]3(C)[C@@H]4CC[C@H]3C[C@@H](NC(=O)c3cc(O)c(O)c(F)c3)C4)CS[C@H]12)c1csc(N)n1)C(=O)[O-].[Na+] (some centres unmarked) :: 0.5 µg/mL
CC(C)(O/N=C(\C(=O)N[C@@H]1C(=O)N2C(c3nnn[n-]3)=C(C[n+]3ccc(NC(=O)c4ccc(O)c(O)c4Cl)cc3)CS[C@H]12)c1csc(N)n1)C(=O)[O-].[Na+] :: 0.5 µg/mL

Note: attention shifts to another entry.
Short answer for "CC(C)(O/N=C(\C(=O)N[C@@H]1C(=O)N2C(c3nnn[n-]3)=C(C[N+]3(CCNC(=O)c4cc(O)c(O)c(Cl)c4)CCCC3)CS[C@H]12)c1csc(N)n1)C(=O)[O-].[Na+]" : MIC was 1 µg/mL

====

- System: A. baumannii SR27323
- testDescription: MIC, CLSI broth microdilution, Test Example 1
- Format: cell-based
- testConditions: Acinetobacter baumannii, SR27323; OXA-23, OXA-58 carbapenemase producing strain; cation-adjusted Mueller Hinton broth containing human apo-transferrin; 5×10^5 cfu/mL; read-out: Minimum Inhibitory Concentration (MIC) A. baumannii SR27323
readout: MIC (µg/mL)
Write the answer as a number in µg/mL, unit excluded.

Short answer for CC(C)(O/N=C(\C(=O)N[C@@H]1C(=O)N2C(c3nnn[n-]3)=C(C[N+]3(CCNC(=O)c4ccc(O)c(O)c4Cl)CCCC3)C[S+]([O-])[C@H]12)c1csc(N)n1)C(=O)[O-].[Na+] (some centres unmarked) : MIC was 16

Short answer for "CC(C)(O/N=C(\C(=O)N[C@@H]1C(=O)N2C(c3nnn[n-]3)=C(C[N+](C)(C)CCNC(=O)c3ccc(O)c(O)c3Cl)CS[C@H]12)c1csc(N)n1)C(=O)[O-].[Na+]" : MIC was 0.25

====

- Tested on: A. baumannii SR27323
- testDescription: MIC, CLSI broth microdilution, Test Example 1
- Type: cell-based
- testConditions: Acinetobacter baumannii, SR27323; OXA-23, OXA-58 carbapenemase producing strain; cation-adjusted Mueller Hinton broth containing human apo-transferrin; 5×10^5 cfu/mL; read-out: Minimum Inhibitory Concentration (MIC) A. baumannii SR27323
Catalogue of log10 of MIC values
A difference of one corresponds to tenfold MIC; all values are log10 with MIC in µg/mL.

Worked set:
CC(C)(O/N=C(\C(=O)N[C@@H]1C(=O)N2C(c3nnn[nH]3)=C(C[n+]3cccc4c3CCCN4C(=O)c3ccc(O)c(O)c3Cl)CS[C@H]12)c1csc(N)n1)C(=O)[O-] :: 0.00
Nc1nc(/C(=N/O[C@@H](CC(=O)[O-])C(=O)[O-])C(=O)N[C@@H]2C(=O)N3C(c4nnn[n-]4)=C(C[N+]4(CCNC(=O)c5ccc(O)c(O)c5Cl)CCCC4)CS[C@H]23)cs1.[Na+].[Na+] :: -0.60
CC(C)(O/N=C(\C(=O)N[C@@H]1C(=O)N2C(c3nn[n-]n3)=C(C[N+]3(Cc4nc(-c5ccc(O)c(O)c5Cl)no4)CCCC3)CS[C@H]12)c1csc(N)n1)C(=O)[O-].[Na+] :: -0.30
CC(C)(O/N=C(\C(=O)N[C@@H]1C(=O)N2C(c3nnn[n-]3)=C(C[N+]3(CCNC(=O)c4ccc(O)c(O)c4F)CCCC3)CS[C@H]12)c1csc(N)n1)C(=O)[O-].[Na+] :: 0.00

log10 of MIC for A. baumannii SR27323 with input "CC(C)(O/N=C(\C(=O)N[C@@H]1C(=O)N2C(c3nnn[nH]3)=C(C[n+]3cccc4c(NC(=O)c5ccc(O)c(O)c5Cl)cccc43)CS[C@H]12)c1csc(N)n1)C(=O)[O-]" equals -0.30

log10 of MIC for A. baumannii SR27323 with input "CC(C)(O/N=C(\C(=O)N[C@@H]1C(=O)N2C(c3nnn[n-]3)=C(C[N+]34CCC(CNC(=O)c5cc(=O)c(O)c[nH]5)(CC3)CC4)CS[C@H]12)c1csc(N)n1)C(=O)[O-].[Na+]" equals 0.00

log10 of MIC for A. baumannii SR27323 with input "CC(C)(O/N=C(\C(=O)N[C@@H]1C(=O)N2C(c3nnn[n-]3)=C(C[n+]3ccc(-c4ccc(O)c(O)c4Cl)cc3)CS[C@H]12)c1csc(N)n1)C(=O)[O-].[Na+]" equals -0.90

log10 of MIC for A. baumannii SR27323 with input "CC(C)(O/N=C(\C(=O)N[C@@H]1C(=O)N2C(c3nnn[nH]3)=C(C[N+]3(CCNC(=O)c4cc(O)c(O)c(F)c4)CCCC3)CS[C@H]12)c1csc(N)n1)C(=O)[O-]" equals -0.30

log10 of MIC for A. baumannii SR27323 with input "CC(C)(O/N=C(\C(=O)N[C@@H]1C(=O)N2C(c3nnn[n-]3)=C(C[N+]3(CCNC(=O)c4ccc(O)c(O)c4Cl)CCCC3)CS[C@H]12)c1csc(N)n1)C(=O)[O-].[Na+]" equals -0.30

log10 of MIC for A. baumannii SR27323 with input "CC(C)(O/N=C(\C(=O)N[C@@H]1C(=O)N2C(c3nnn[n-]3)=C(Cn3cc(NC(=O)c4ccc(O)c(O)c4Cl)[n+]4c3CCCC4)CS[C@H]12)c1csc(N)n1)C(=O)[O-].[Na+]" equals 0.00

log10 of MIC for A. baumannii SR27323 with input "Cc1c(O)c(O)cc2cc[n+](CC3=C(c4nnn[n-]4)N4C(=O)[C@@H](NC(=O)/C(=N\OC(C)(C)C(=O)[O-])c5csc(N)n5)[C@H]4SC3)cc12.[Na+]" equals -0.90

log10 of MIC for A. baumannii SR27323 with input CC(C)(O/N=C(\C(=O)N[C@@H]1C(=O)N2C(c3nnn[n-]3)=C(C[N+]34CCC[C@H]3CN(C(=O)c3cc(O)c(O)c(Cl)c3)CC4)CS[C@H]12)c1csc(N)n1)C(=O)[O-].[Na+] (stereo partly drawn) equals 0.30

log10 of MIC for A. baumannii SR27323 with input CC(C)(O/N=C(\C(=O)N[C@@H]1C(=O)N2C(c3nnn[n-]3)=C(C[N+]3(C)[C@@H]4CC[C@H]3C[C@@H](NC(=O)c3ccc(O)c(O)c3Cl)C4)CS[C@H]12)c1nc(N)sc1Cl)C(=O)[O-].[Na+] (stereo partly drawn) equals 0.30

log10 of MIC for A. baumannii SR27323 with input "CC(C)(O/N=C(\C(=O)N[C@@H]1C(=O)N2C(c3nnn[n-]3)=C(C[n+]3cccc(NC(=O)c4ccc(O)c(O)c4Cl)c3)CS[C@H]12)c1csc(N)n1)C(=O)[O-].[Na+]" equals -0.60

log10 of MIC for A. baumannii SR27323 with input CC(C)(O/N=C(\C(=O)N[C@@H]1C(=O)N2C(C(=O)[O-])=C(C[N+]34CCC(CNC(=O)c5ccc(O)c(O)c5Cl)(CC3)CC4)CS[C@H]12)c1csc(N)n1)C(=O)[O-].[Na+] [Comparative Compound 1, reference compound] equals 0.00

log10 of MIC for A. baumannii SR27323 with input C[N+]1(CC2=C(c3nnn[n-]3)N3C(=O)[C@@H](NC(=O)/C(=N\O[C@@H](CC(=O)[O-])C(=O)[O-])c4csc(N)n4)[C@H]3SC2)[C@@H]2CC[C@H]1C[C@@H](NC(=O)c1ccc(O)c(O)c1Cl)C2.[Na+].[Na+] (stereo partly drawn) equals -0.90

log10 of MIC for A. baumannii SR27323 with input "CC(C)(O/N=C(\C(=O)N[C@@H]1C(=O)N2C(c3nnn[n-]3)=C(C[N+]3(CCNC(=O)c4cc(O)c(O)cc4F)CCCC3)CS[C@H]12)c1csc(N)n1)C(=O)[O-].[Na+]" equals 0.30
